pKi: −log10 of the molar value.
Target or system Carbonic anhydrase 2 (Homo sapiens, UniProt P00918): recorded pKi listed per item.
measurement name: pKi

Worked examples follow.
CCOC(=O)c1cc(O)cc(O)c1 :: 6.18
COC(=O)/C=C/c1ccc(O)cc1 [METHYL P-HYDROXYCINNAMATE] :: 6.10
COC(=O)c1cc(O)cc(O)c1 [METHYL 3,5-DIHYDROXYBENZOATE] :: 6.16
COC(=O)c1ccc(O)cc1O [METHYL 2,4-DIHYDROXYBENZOATE] :: 6.12

P: COC(=O)c1cc(O)ccc1O [METHYL 2,5-DIHYDROXYBENZOATE]
Q: CC(C)OC(=O)c1ccc(O)cc1 [ISOPROPYL 4-HYDROXYBENZOATE]
Data request: Hi! Which is lower in terms of pKi, the first one P or the second one Q ? Give the label under which the chosen entry appears.
Data returned: Q
